Listed next: entries and their corresponding switch fluorescence ratio.
# Test system: ATP;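 further: ATP exposure 15 min at 22 °C before imaging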
# procedure_details: switch fluorescence ratio, 500 uM ATP over buffer (Cy3 cluster intensity, sum of 5 cycles each) (fold (ratio)); higher = stronger signal-on switching upon ATP binding; sequences stand for … in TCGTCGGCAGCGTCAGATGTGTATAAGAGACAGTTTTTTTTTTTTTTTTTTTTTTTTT…TC
# cond: aptamer strand: ATP DNA aptamer (quencher-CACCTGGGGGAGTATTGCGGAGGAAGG + anchor), 100 nM annealed; ATP concentration: 500 uM

Guide cases for switch fluorescence ratio, answers given:
- GTAAGAGGAA: 1.01
- CACCCGGGGT: 1.21
- TTCTTTTTAT: 0.982

Recorded switch fluorescence ratio of TAAGGCTTTG , please. 0.999

Proceed to ACTTAGGGGG 1.01

Next entry: CTTATCGAAG 0.968

// query: GTGGGGCAGC 0.945

What about this sequence? ATAGAGGGGG 0.996

Repeat with TAGCGGGGCA 0.996

What do you get for GGCGGGGACC ? 0.982

---

Parameter switch fluorescence ratio: see the listing below.
# Test system: ATP;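 further: ATP exposure 15 min at 22 °C before imaging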
# procedure_details: switch fluorescence ratio, 500 uM ATP over buffer (Cy3 cluster intensity, sum of 5 cycles each) (fold (ratio)); higher = stronger signal-on switching upon ATP binding; sequences stand for … in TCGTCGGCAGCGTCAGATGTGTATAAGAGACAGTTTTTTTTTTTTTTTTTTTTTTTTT…TC
# cond: aptamer strand: ATP DNA aptamer (quencher-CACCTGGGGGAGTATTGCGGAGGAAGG + anchor), 100 nM annealed; ATP concentration: 500 uM
Please reply with the number alone, leaving off any unit.

Examples from the recorded data:
* GCTGACTGGT | 0.994
* AACCGGGGTT | 0.996
* GGTAGCTAAG | 1
* CAGTTCCCGC | 1.16
* GAAGATATTA | 1
* GGTGCAGACG | 1.03

Requested field: switch fluorescence ratio. Item: CTAAAGTGGG 0.973

Then what about the sequence TGTTGAATGT ? 1.02

Thanks! And GGGCCTTGAG ? 1.03

---

# Test system: ATP;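 further: ATP exposure 15 min at 22 °C before imaging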
# procedure_details: switch fluorescence ratio, 500 uM ATP over buffer (Cy3 cluster intensity, sum of 5 cycles each) (fold (ratio)); higher = stronger signal-on switching upon ATP binding; sequences stand for … in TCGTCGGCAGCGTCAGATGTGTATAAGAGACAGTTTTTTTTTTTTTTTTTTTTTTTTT…TC
# cond: aptamer strand: ATP DNA aptamer (quencher-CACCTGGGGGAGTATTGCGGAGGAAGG + anchor), 100 nM annealed; ATP concentration: 500 uM
Parameter threshold = 1. Response is t when switch fluorescence ratio meets or exceeds it, else f.

* AGGGGGAAAA | t

Exam item: decide whether the reported switch fluorescence ratio for TTCGGACGGT is at least 1. t

For CCGTAATAGG then? t

---

# System: ATP;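 further: ATP exposure 15 min at 22 °C before imaging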
# procedure_details: switch fluorescence ratio, 500 uM ATP over buffer (Cy3 cluster intensity, sum of 5 cycles each) (fold (ratio)); higher = stronger signal-on switching upon ATP binding; sequences stand for … in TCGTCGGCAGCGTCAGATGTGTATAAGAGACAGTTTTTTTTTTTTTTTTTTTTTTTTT…TC
# cond: aptamer strand: ATP DNA aptamer (quencher-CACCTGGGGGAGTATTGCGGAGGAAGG + anchor), 100 nM annealed; ATP concentration: 500 uM
value_type: switch fluorescence ratio
Simply state the number, no unit and no words.

Some solved cases for reference:
• ATTTCAGCGA = 1.09
• ACATGATGTT = 1
• GTTGGTATAG = 1.01

Entry GTAGCATGCC , system ATP: what switch fluorescence ratio was measured? 1.32

Lookup AAGCTTGTTG 0.992

Now consider GGGAATTTTC and answer again. 1

---

# Tested on: ATP;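 further: ATP exposure 15 min at 22 °C before imaging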
# procedure_details: switch fluorescence ratio, 500 uM ATP over buffer (Cy3 cluster intensity, sum of 5 cycles each) (fold (ratio)); higher = stronger signal-on switching upon ATP binding; sequences stand for … in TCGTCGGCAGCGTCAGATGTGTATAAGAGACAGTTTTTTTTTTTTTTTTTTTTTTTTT…TC
# cond: aptamer strand: ATP DNA aptamer (quencher-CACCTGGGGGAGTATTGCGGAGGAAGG + anchor), 100 nM annealed; ATP concentration: 500 uM
value_type: switch fluorescence ratio
Just the number, please, no unit attached.

• TGGCTGGAAC = 0.981
• CGATAAAGGT = 1.02
• TATAAGAGAA = 0.972
• CGTGAAAGG = 0.955
• TAAAGAAGGG = 0.988

What value of switch fluorescence ratio has been recorded for this entry: CGAGATATTG 0.983

Also TGGTGCAGGA , if possible. 0.978

---

List of switch fluorescence ratio values.
# Tested on: ATP;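 further: ATP exposure 15 min at 22 °C before imaging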
# procedure_details: switch fluorescence ratio, 500 uM ATP over buffer (Cy3 cluster intensity, sum of 5 cycles each) (fold (ratio)); higher = stronger signal-on switching upon ATP binding; sequences stand for … in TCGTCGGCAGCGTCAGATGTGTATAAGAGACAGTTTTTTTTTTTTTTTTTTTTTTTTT…TC
# cond: aptamer strand: ATP DNA aptamer (quencher-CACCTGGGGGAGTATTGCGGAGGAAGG + anchor), 100 nM annealed; ATP concentration: 500 uM
Please state the value as a number alone, without comment.

In the examples that follow, each entry is paired with its recorded switch fluorescence ratio.
* GTGAGCGACG | 0.965
* TCAGTCATCT | 1
* CTAAATTTTA | 0.989
* TCGTTGGGGT | 0.987
* TTTTCATGGG | 0.995
* ATAGCGCCGT | 1.01

Which switch fluorescence ratio value belongs to TGTGTGAATG ? 1.03

---

This listing pairs sequences with measured switch fluorescence ratio.
# Tested on: ATP;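 further: ATP exposure 15 min at 22 °C before imaging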
# procedure_details: switch fluorescence ratio, 500 uM ATP over buffer (Cy3 cluster intensity, sum of 5 cycles each) (fold (ratio)); higher = stronger signal-on switching upon ATP binding; sequences stand for … in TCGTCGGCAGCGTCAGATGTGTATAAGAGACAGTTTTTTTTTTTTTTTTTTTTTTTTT…TC
# cond: aptamer strand: ATP DNA aptamer (quencher-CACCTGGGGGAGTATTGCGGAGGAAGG + anchor), 100 nM annealed; ATP concentration: 500 uM
// keep it numeric: no unit symbol after the value

Some sequences with known switch fluorescence ratio results, for comparison:
• AGATCAAGGT = 1.02
• ATTTTCTATG = 0.978
• TTGCTCTAGC = 1.03
• TTATTCGAGA = 1.02
• AATGAGGGTA = 1.04
• ACCATCAAAT = 0.985

For the sequence shown here, GAGTGGCACC , give the reported switch fluorescence ratio. 1.04

Thanks! And TGGGTATAAT ? 1.01

Same question for TTAAGTGCTC please. 0.983

Can you check TTTTAGCTTC next? 1.03

What do we get for TGCTGGCCGG ? 0.98

Another sequence to look at: TAAGGAATGT 1.04

Further, for CTTAGAGTTG ? 0.983

Entry ACTATGCTTT please 1.02

Request: ATTGATTTTT 1.01

Consider next the sequence CGTGGATTTT in the same way. 0.972

Same thing, different sequence: GGGACATTAT 1

# iterate: CATGTCAAGA 1.01

Same question, TTTTTCCGCT this time 1.86

Note, next up: GGTGAGTGCA 1.02

---

# System: ATP;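 further: ATP exposure 15 min at 22 °C before imaging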
# procedure_details: switch fluorescence ratio, 500 uM ATP over buffer (Cy3 cluster intensity, sum of 5 cycles each) (fold (ratio)); higher = stronger signal-on switching upon ATP binding; sequences stand for … in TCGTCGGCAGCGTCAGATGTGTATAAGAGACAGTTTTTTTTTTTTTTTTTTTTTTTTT…TC
# cond: aptamer strand: ATP DNA aptamer (quencher-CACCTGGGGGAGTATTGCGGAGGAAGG + anchor), 100 nM annealed; ATP concentration: 500 uM
Property: switch fluorescence ratio; scope: individual sequences
Hey, just send me the number, nothing else.

// worked examples, switch fluorescence ratio included
* AAGGTCGTCG | 0.983
* TAAGAGCCAT | 1.04
* GGGAGGGAGG | 0.988
* TGCGGTGTGC | 1.04
* AGGGGTCCCG | 0.935

State its switch fluorescence ratio on ATP: TTAGGACGCT 1.03

// query: AGGTTACCGG 0.987

---

# Test system: ATP;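 further: ATP exposure 15 min at 22 °C before imaging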
# procedure_details: switch fluorescence ratio, 500 uM ATP over buffer (Cy3 cluster intensity, sum of 5 cycles each) (fold (ratio)); higher = stronger signal-on switching upon ATP binding; sequences stand for … in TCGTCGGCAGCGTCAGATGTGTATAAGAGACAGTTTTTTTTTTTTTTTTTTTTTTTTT…TC
# cond: aptamer strand: ATP DNA aptamer (quencher-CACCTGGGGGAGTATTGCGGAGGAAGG + anchor), 100 nM annealed; ATP concentration: 500 uM
value_type: switch fluorescence ratio
# answer = number (no unit)

- AATATGTGAG: 0.995
- CTCAGAAACG: 1.03
- TTATCTAGTG: 0.989
- TATTAGTAGC: 0.999
- GAGTATTGGT: 0.982
- TGTTGTTGTT: 1.01

Requested read-out: switch fluorescence ratio. Entry: TTTGGGGGG 1.05

Could you do the same for CCCGGACGGT , please? 1

How about GATGACCTTT ? 1.07

Moving on to the next sequence: ATCCGTAATT 2.6

Same for ACGGGTTAAT 1.01

Request: AGGGGGTGCG 0.988
